Test protocol: qHTS RealTime-Glo MT Cell Viability Assay in HEK293 cells - 16 hour (AID 1224872); note: nearly all actives have a fitted effect of over 50% in size
Setup conditions: RealTime-Glo luminescence; series mostly up to 76.8 µM
Results filed as inconclusive are left out. Activity calls are given as the source filed them. Calls come from the whole dose curve; as a rule, active = well fitted cell-killing curve with a large enough effect in the repeat runs; inconclusive = weak or mixed curves, or effect the other way; inactive = flat fitted curve, though single readings scatter.
# output must be one of active, inactive

Study these solved cases before continuing.
[[record]]
compound = "FC(F)(Cl)C(F)(Cl)Cl"
assigned_category = "inactive"

[[record]]
compound = "Cc1ccc2ccccc2c1[N+](=O)[O-]"
assigned_category = "inactive"

[[record]]
compound = "COC(=O)/C=C/C(C)=C\\C=C\\C(C)=C\\C=C\\C=C(C)\\C=C\\C=C(C)\\C=C\\C(=O)O"
assigned_category = "inactive"


Request: Please indicate how the test categorized `C=C(C)C(=O)OCCCCCCCCCCOC(=O)C(=C)C` .
Response: inactive

Request: Same question, CC(O)CN (stereo not drawn) this time
Response: inactive

Request: Same question, `CC(C)CCCCCOC(=O)CS` this time
Response: inactive

Request: Same question, CCCC1CCCC(=O)O1 (stereo not drawn) this time
Response: inactive

Request: Same question, `O=Cc1ccc([N+](=O)[O-])cc1` this time
Response: inactive

Request: Same question, `CCOc1ccccc1O` this time
Response: inactive

Request: Same question, `CC1=C(C)C(=O)C(CCCCC#CCCCC#CCO)=C(C)C1=O` this time
Response: active

* * *

Target system: Cytochrome P450 1A2 (Homo sapiens)
Test protocol: Cytochrome P450 Family 1 Subfamily A Member 2 (CYP1A2) small molecule antagonists: luciferase reporter qHTS assay (AID 1671199); note: nearly all actives have a fitted effect of over 50% in size
Setup conditions: P450-Glo CYP1A2 enzyme, luciferin luminescence, 1 h; series mostly up to 115 µM
Excerpt: National Center for Advancing Translational Sciences [NCATS] U.S. Environmental Protection Agency [EPA] National Institutes of Environmental Health Sciences [NIEHS] National Toxicology Program [NTP] U.S. Food and Drug Administration [FDA] Cytochrome P450 (CYP) enzymes are membrane-bound hemeproteins that play a key role in metabolism of drugs and xenobiotics. […] The luciferin products formed are detected with a luciferin detection reagent, and the amount of light produced is proportional to CYP activity. […]
Records with an inconclusive call do not appear. Calls of active or inactive are those of the source. The call rests on the fitted dose curve; in most records, active means well fitted inhibition curve with a large enough effect in the repeat runs; inconclusive means weak or mixed curves; inactive means no such curve, though single readings can be large or run the other way.
# output must be one of TRUE (active), FALSE (inactive)

[[record]]
compound = "O=C(O)c1ccc(O)c(O)c1"
assigned_category = "TRUE"


Request: Please indicate how the test categorized `S=c1[nH][nH]c(=S)s1` .
Response: FALSE

Request: Same question, `Cc1cc(N)n(-c2ccccc2)n1` this time
Response: TRUE

Request: Same question, O=C1OC(=O)C2CC=CCC12 (stereo not given) this time
Response: FALSE

Request: Same question, `COc1ccc(/C(C)=C/C(=O)O)c(OC)c1` this time
Response: FALSE

Request: Same question, `C[C@H]1C[C@H]2[C@@H]3CCC4=CC(=O)C=C[C@]4(C)[C@@]3(F)[C@@H](O)C[C@]2(C)[C@@]1(O)C(=O)COP(=O)(O)O` this time
Response: FALSE

Request: Same question, CCOc1ccc2c(c1)C(C)CC(C)(C)N2 (stereo not given) this time
Response: TRUE

Request: Same question, `O=C(O)c1cccc(C(=O)O)c1C(=O)O` this time
Response: FALSE

Request: Same question, `COC(=O)c1cc(Cl)ccc1[N+](=O)[O-]` this time
Response: TRUE
